# SYSTEM_UNDER_TEST: MmGSTP1-1 (Mus musculus)
# Construct: recombinant MmGSTP1-1 (GenBank BC061109.1), expressed in E. coli
# Sequence (P19157 2-210): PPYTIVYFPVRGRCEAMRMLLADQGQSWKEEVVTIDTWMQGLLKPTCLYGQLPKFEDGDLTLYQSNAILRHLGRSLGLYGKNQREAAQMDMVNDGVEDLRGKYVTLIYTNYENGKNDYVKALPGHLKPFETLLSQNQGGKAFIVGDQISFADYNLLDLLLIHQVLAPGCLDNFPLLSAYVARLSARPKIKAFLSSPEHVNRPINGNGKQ
# RUN_DESCRIPTION: CDNB-GSH enzyme assay at […] nm, inhibition kinetics (KiE, GSH varied); IC50 […]
RECORDED_METRIC: Ki (µM)
State just the number; it will be interpreted in µM.

The compound identified as CC(C)NC(=O)N1CC(=O)N(c2cc(Cl)cc(Cl)c2)C1=O [iprodione] registered its Ki at 5.2

----------
Measured inhibition at 25 µM by item
# SYSTEM_UNDER_TEST: MmGSTP1-1 (Mus musculus)
# Construct: gene Gstp1; recombinant MmGSTP1-1 (GenBank BC061109.1), expressed in E. coli
# RUN_DESCRIPTION: CDNB-GSH enzyme assay, single concentration […]
# Format: biochemical
# MEASUREMENT_PARAMETERS: read-out: % inhibition at 25 μM
State just the number; it will be interpreted in %.

Consider the reported inhibition at 25 µM for these molecules:
>>> value_measured("O=S1OC[C@@H]2[C@H](CO1)[C@@]1(Cl)C(Cl)=C(Cl)[C@]2(Cl)C1(Cl)Cl (stereo partly drawn) [α-endosulfan]")
58
>>> value_measured("Cc1cc(C)c(C2=C(OC(=O)CC(C)(C)C)C3(CCCC3)OC2=O)c(C)c1")
70
>>> value_measured("CSC1=N[C@@](C)(c2ccccc2)C(=O)N1Nc1ccccc1")
53

# ---- query molecule ----
The molecule identified as "CC1(C)[C@H](C(=O)O[C@H](C#N)c2cccc(Oc3ccccc3)c2)[C@@H]1C=C(Br)Br" registered its inhibition at 25 µM at 82
